SUBJECT OF TEST: p38α (Homo sapiens)
Construct: p38 MAP Kinases are recombinant human full-length proteins with an amino-terminal GST fusion; GST (N)
Sequence (Q16539 whole entry, the tested form may be a part): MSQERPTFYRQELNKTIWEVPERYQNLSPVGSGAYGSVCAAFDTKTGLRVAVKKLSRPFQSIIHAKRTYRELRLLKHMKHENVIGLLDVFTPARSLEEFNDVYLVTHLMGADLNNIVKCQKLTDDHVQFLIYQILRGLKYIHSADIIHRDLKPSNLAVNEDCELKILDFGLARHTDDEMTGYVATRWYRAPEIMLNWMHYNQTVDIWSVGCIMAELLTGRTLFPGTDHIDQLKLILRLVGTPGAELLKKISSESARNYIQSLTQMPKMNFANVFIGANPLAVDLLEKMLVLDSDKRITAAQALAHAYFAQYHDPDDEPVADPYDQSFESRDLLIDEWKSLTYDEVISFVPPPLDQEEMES
ASSAY METHOD TEXT: p38 MAP Kinase assay: inhibition of ATF2 phosphorylation, ELISA
RUN CONDITIONS: ATF2 phosphorylation; read-out: [ENZ] P38 ALPHA, IC50, ELISA
pIC50: recorded values
pIC50 is a log-scale quantity: -log10 of the concentration expressed in molar.

COMPOUND: O=C(Nc1ccc(Oc2ccnc(NC3CCS(=O)(=O)C3)n2)c2ccccc12)c1cc(F)cc(N2CCCCC2)c1 (stereo not shown) [Compound B406]
MEAS VALUE: 7.71
//
COMPOUND: O=C(Nc1ccc(Oc2ccnc(NC3CCC3)n2)c2ccccc12)c1cc(F)cc(N2CCCCC2)c1 [Compound B383]
MEAS VALUE: 7.94
//
COMPOUND: Cc1cc(F)ccc1-c1cccc(C(=O)Nc2ccc(Oc3ccnc(NCC(C)(C)CN(C)C)n3)c3ccccc23)c1 [Compound B314]
MEAS VALUE: 9.00
//
COMPOUND: O=C(Nc1ccc(OCCN2CCOCC2)c2ccccc12)c1cc(F)cc(N2CCCCC2)c1 [Compound B66]
MEAS VALUE: 6.95
//
COMPOUND: O=C(Nc1ccc(OCCN2CCOCC2)c2ccccc12)c1cccc(-c2cccc(C(F)(F)F)c2)c1 [Compound B88]
MEAS VALUE: 5.73

// query Item under review: Cc1cc(F)ccc1-c1cccc(C(=O)Nc2ccc(OCCN3CCOCC3)c3ccccc23)c1 [Compound B245] . Reported pIC50?
// result 6.20

// query Item under review: CC(C)(C)Oc1cccc(C(=O)Nc2ccc(OCCN3CCOCC3)c3ccccc23)c1 [Compound B65] . Reported pIC50?
// result 6.21

// query Item under review: O=C(Nc1ccc(NCCN2CCOCC2)c2ccccc12)c1cc(F)cc(N2CCCCC2)c1 [Compound B242] . Reported pIC50?
// result 5.69

// query Item under review: O=C(Nc1ccc(Oc2ccnc(N3CCC3)n2)c2ccccc12)c1cc(F)cc(N2CCOCC2)c1 [Compound B363] . Reported pIC50?
// result 8.24

// query Item under review: O=C(Nc1ccc(OCc2ccco2)c2ccccc12)c1cc(F)cc(N2CCOCC2)c1 [Compound B223] . Reported pIC50?
// result 4.89

// query Item under review: O=C(Nc1ccc(OCCCc2cccnc2)c2ccccc12)c1cc(F)cc(N2CCOCC2)c1 [Compound B222] . Reported pIC50?
// result 6.09

// query Item under review: COCCNc1nccc(Oc2ccc(NC(=O)c3cc(F)cc(N4CCOCC4)c3)c3ccccc23)n1 [Compound B319] . Reported pIC50?
// result 9.00
